Item-by-item account of IC50
# Tested on: rabbit's isolated aorta
# ASSAY PROCEDURE: KCl-induced contraction of the rabbit's isolated aorta (antispasmodic activity on the smooth muscles)
# Assay type: cell-based
# ASSAY CONDITIONS: Oryctolagus cuniculus, Godfraind method, read-out: ED50 (the source's name)
State the answer as a number, implicitly in µg/mL.

>>> value_observed("CN(CCC(c1ccccc1)c1ccccc1)CCN(C)Cc1ccccc1")
4.6

Return IC50 for the following compound: COc1ccc(C(O)(CCN(C)CCN(C)Cc2ccccc2)c2ccc(OC)cc2)cc1
5.2

Return IC50 for the following compound: COc1cc(CN(C)CCN(C)CCC(c2ccccc2)c2ccccc2)cc(OC)c1OC
1.3

Return IC50 for the following compound: CN(CC=C(c1ccccc1)c1ccccc1)CCN(C)Cc1ccccc1
2.1
